Test system: authentic ZIKV PRVABC59 (2015/Puerto Rico)
Test: microbe, parasite or virus in culture
Format: cell-based
Conditions: Zika virus, Vero C1008
PROPERTY MEASURED: IC50
Answers without a unit are incomplete; give the number and then its unit.

Form: compound = `O=C(O)c1cc(-c2ccc(/C=C3\SC(=S)N(CCc4ccc(OCC5CC5)cc4)C3=O)o2)ccc1Cl` ; IC50 = 910 nM

* * *

Would you kindly list IC50 for each of these molecules?
System: H5N1 PsV
Assay: microbe, parasite or virus in culture
Format: cell-based, influenza virus
Conditions: Influenza A virus, H5N1, MDCK, read-out: IC50 H5N1
Respond with the bare value in nM.

Value of measured IC50 for the entry `C#CCOc1ccc(CCN2C(=O)/C(=C/c3ccc(-c4ccc(Cl)c(C(=O)O)c4)o3)SC2=S)cc1` : 470

According to the records, this molecule `CCOc1ccc(CCN2C(=O)/C(=C/c3ccc(-c4ccc(Cl)c(C(=O)O)c4)o3)SC2=S)cc1` displays IC50 of 150

Lab book: IC50 of `O=C(O)c1cc(-c2ccc(/C=C3\SC(=S)N(CCc4ccc(OCc5ccsc5)cc4)C3=O)o2)ccc1Cl` noted as 260

Documented IC50 of `O=C(O)c1cc(-c2ccc(/C=C3\SC(=S)N(CCc4ccc(OCc5ccc(F)cc5)cc4)C3=O)o2)ccc1Cl` : 970

The reported value for `C#CCOCCOc1ccc(CCN2C(=O)/C(=C/c3ccc(-c4ccc(Cl)c(C(=O)O)c4)o3)SC2=S)cc1` in terms of IC50 is 510

So for `O=C(O)c1cc(-c2ccc(/C=C3\SC(=S)N(CCc4ccc(OCC5CC5)cc4)C3=O)o2)ccc1Cl` , the logged IC50 turned out to be 150
